Source of measurements: paper PMC12866179

# run.description: in vivo
# Set-up: species or system Sprague Dawley rats
# condition.parameters: male, Sprague-Dawley, rat, po, 5 mg/kg
endpoint.name: half-life (h)
Return type: number; implicit unit h.

Request: Consider the compound shown here: [I-].c1cc2nc3ccc(N4CCCC4)cc3[s+]c2cc1N1CCCC1 What is its recorded half-life?
Result: 3.3

----------
# run.description: in vivo
# Design: species or system Sprague Dawley rats
# condition.parameters: male, Sprague-Dawley, rat, ip, 5 mg/kg
endpoint.name: half-life (h)
Return type: number; implicit unit h.

Request: Consider the compound shown here: [I-].c1cc2nc3ccc(N4CCCC4)cc3[s+]c2cc1N1CCCC1 What is its recorded half-life?
Result: 7

----------
# run.description: MTT assay, Vero cells
# Assay type: cell-based
# condition.parameters: African green monkey, CC50, MTT assay in Vero
# Method: For viability analysis 4x10^4 Vero or 8x10^4 SH-SY5Y-tau-P301S cells were plated in a 96-well plate and incubated at 37°C overnight. Then the compounds diluted in DMSO were added to the cells. The final concentration of DMSO was 1%. The cells were then incubated for 24h (Vero) or 48h (SH-SY5Y). […] The diluted formazan was spectrometrically analyzed using a Tecan Safire Spectrometer at 560 nm and background at 670 nm was subtracted.
endpoint.name: CC50 at 24 h (µM)
Return type: number; implicit unit µM.

Request: Consider the compound shown here: CCc1cc(N2CCCC2)cc2[s+]c3cc(N4CCCC4)cc(C)c3nc12.[I-] What is its recorded CC50 at 24 h?
Result: 1.12

----------
# run.description: MTT assay, Vero cells
# Format: cell-based
# condition.parameters: CC50 (µM)
endpoint.name: CC50

As a guide, the following entries are already answered.
molecule	result
CCc1cc(N(C)C)cc2[s+]c3cc(N4CCN(S(=O)(=O)C(F)(F)F)CC4)cc(C)c3nc12 [PAV-173]	2.67 µM
[I-].c1cc2nc3ccc(N4CCCC4)cc3[s+]c2cc1N1CCCC1 [PAV-617]	20.1 µM
CCc1cc(N2CCC(N(C)C)CC2)cc2[s+]c3cc(N4CCC(N(C)C)CC4)cc(C)c3nc12 [PAV-251]	> 25 µM
CN(C)c1ccc2nc3ccc(=[N+](C)C)cc-3sc2c1 [PAV-802, methylene blue, reference compound]	> 25 µM
CCc1cc(N2CCCNCC2)cc2[s+]c3cc(N4CCCNCC4)cc(C)c3nc12 [PAV-352]	> 25 µM
CCc1cc(N2CCC(NC(=O)OC(C)(C)C)CC2)cc2[s+]c3cc(N4CCOCC4)cc(C)c3nc12 [PAV-395]	13.1 µM
CCc1cc(N2CCNCC2)cc2[s+]c3cc(N4CCNCC4)cc(C)c3nc12 [PAV-382]	> 25 µM
CCc1cc(N(C)C)cc2[s+]c3cc(N4CCCNCC4)cc(CC)c3nc12 [PAV-493]	> 25 µM
CCc1cc(N2CCCC2)cc2[s+]c3cc(N4CCCC4)cc(C)c3nc12.[I-] [PAV-174]	1.16 µM
CCc1cc(N2CCN(C)CC2)cc2[s+]c3cc(N4CCN(C)CC4)cc(C)c3nc12.[I-] [PAV-152]	> 25 µM

Query molecule follows.
Request: Consider the molecule shown here: CCc1cc(N(CC)CC)cc2[s+]c3cc(N4CCNCC4)ccc3nc12.[Cl-] [PAV-645] What is its recorded CC50?
Result: > 25 µM

----------
# run.description: in vivo
# Parameters: species or system Sprague Dawley rats
# condition.parameters: male, Sprague-Dawley, rat, iv, 1 mg/kg
endpoint.name: Tmax (h)
Return type: number; implicit unit h.

Request: Consider the compound shown here: [I-].c1cc2nc3ccc(N4CCCC4)cc3[s+]c2cc1N1CCCC1 What is its recorded Tmax?
Result: 1

----------
# run.description: in vivo
# Set-up: species or system Sprague Dawley rats
# condition.parameters: male, Sprague-Dawley, rat, iv, 1 mg/kg
# Procedure: Studies investigating the pharmacokinetics of PAV-617 were performed by Vipragen Biosciences Inc in […]. The animal care committee approval numbers for the studies are: M-Tox: VIP/IAEC/41/2016 and PK: VIP/IAEC/316/2021. […] (C) Pharmacokinetic assessment of PAV-61 7 in Sprague Da wley ra ts (S D). Ma le SD ra ts (n=4) we re dosed via three ro utes na me ly intravenous (IV )- 1 mg/kg, (IP )- 5 mg/kg an d per ora l (P O)- 5 mg/kg. […]
endpoint.name: half-life
In your response, the unit should come after the numeric value.

Request: Consider the compound shown here: [I-].c1cc2nc3ccc(N4CCCC4)cc3[s+]c2cc1N1CCCC1 [PAV-617] What is its recorded half-life?
Result: 7.8 h

----------
# Test system: HSV-1
# run.description: In-cell ELISA for antiviral (HSV-1) activity in Vero cells
# Assay type: cell-based, HSV-1 KOS strain
# condition.parameters: Human alphaherpesvirus 1, Vero, read-out: IC50, HSV-1 replication, in-cell ELISA
endpoint.name: pIC50
Please keep in mind that pIC50 is minus log10 of the molar concentration; only the number is needed.

Request: Consider the molecule shown here: CCc1cc(N2CCCC2)cc2[s+]c3cc(N4CCCC4)cc(C)c3nc12.[I-] What is its recorded pIC50?
Result: 7.68

----------
# run.description: in vitro
# Type: in vitro ADME
endpoint.name: fraction unbound

compound	fraction unbound
CCc1cc(N2CCCC2)cc2[s+]c3cc(N4CCCC4)cc(C)c3nc12.[I-] [PAV-174]	0.001

Query compound follows.
Request: Consider the compound shown here: [I-].c1cc2nc3ccc(N4CCCC4)cc3[s+]c2cc1N1CCCC1 [PAV-617] What is its recorded fraction unbound?
Result: 0.088

----------
Below, each entry is listed alongside its reported CC50.
# Tested on: Vero cells
# run.description: MTT assay, Vero cells
# Type: cell-based

As a guide, the following entries are already answered.
compound	CC50
CCc1cc(N2CCCN(C(=O)OC(C)(C)C)CC2)cc2[s+]c3cc(N4CCSCC4)cc(C)c3nc12	7.26 µM
CCc1cc(N2CCSCC2)cc2[s+]c3cc(N4CCSCC4)cc(C)c3nc12	> 25 µM

Query compound follows.
Request: Consider the compound shown here: CCc1cc(N2CCOCC2)cc2[s+]c3cc(N4CCOCC4)cc(C)c3nc12 What is its recorded CC50?
Result: > 25 µM

----------
# run.description: MTT assay, SH-SY5Y-tau-P301S cells
# Assay type: cell-based
# condition.parameters: human, Figure S1B
endpoint.name: CC50 at 48 h
In your response, the unit should come after the numeric value.

Request: Consider the molecule shown here: CCc1cc(N2CCCC2)cc2[s+]c3cc(N4CCCC4)cc(C)c3nc12.[I-] [PAV-174] What is its recorded CC50 at 48 h?
Result: 1480 nM
